# Test system: WT Max(13-93) synthetic (M65Nle)
# test_summary: PBM 8-mer E-score (E-score (rank enrichment, -0.5 to 0.5)); higher = stronger preferential binding
Over roughly 33,000 sequences, “E-score (rank enrichment, -0.5 to 0.5)” has its median near -0.0075; the highest 2% begin near 0.23. This is one part of a sample in which the highest values are shown more often than they occur.
endpoint: PBM 8-mer E-score

AATATACA; 0.246
TATATAGA; 0.104
AATATACT; 0.104
AGACTTAC; 0.0412

Ask: Entry `ACGTGTAA` needs its PBM 8-mer E-score filled in; supply it.
Result: 0.35

Ask: Entry `CCTCGATA` needs its PBM 8-mer E-score filled in; supply it.
Result: -0.157

Ask: Entry `ACCCCCCG` needs its PBM 8-mer E-score filled in; supply it.
Result: -0.2

Ask: Entry `AATATAGA` needs its PBM 8-mer E-score filled in; supply it.
Result: 0.277

Ask: Entry `AGGCGCTG` needs its PBM 8-mer E-score filled in; supply it.
Result: -0.0811

Ask: Entry `ACTTGGGG` needs its PBM 8-mer E-score filled in; supply it.
Result: 0.0672

Ask: Entry `AAGTGTAT` needs its PBM 8-mer E-score filled in; supply it.
Result: 0.149

src = the supplement of paper PMC12636033
